- Experimental System: GPR68/OGR1 (Homo sapiens (Human), UniProt Q15743)
- Sequence (Q15743 whole entry): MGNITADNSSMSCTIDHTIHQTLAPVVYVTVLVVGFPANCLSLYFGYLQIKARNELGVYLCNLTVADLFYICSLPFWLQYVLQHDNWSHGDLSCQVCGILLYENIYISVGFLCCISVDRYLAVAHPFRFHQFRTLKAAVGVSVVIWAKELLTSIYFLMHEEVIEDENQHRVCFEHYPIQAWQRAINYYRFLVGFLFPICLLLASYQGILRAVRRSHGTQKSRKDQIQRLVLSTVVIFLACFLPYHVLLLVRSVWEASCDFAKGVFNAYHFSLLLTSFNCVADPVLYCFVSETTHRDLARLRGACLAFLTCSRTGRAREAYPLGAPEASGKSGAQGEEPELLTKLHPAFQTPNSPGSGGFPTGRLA
- Test Name: inhibition of GPR68/OGR1 in CHEM1-OGR1 cells, Fluo-8 calcium response to acidified media
- Reported Conditions: acidified media pH 6.4, Fluo-8
pEC50: −log10 of the molar value.
Quantity: pEC50

1 = O=C1Nc2ccc(F)cc2C12NN=C(c1ccc3ncccc3c1)S2 (stereo not shown)
2 = O=C1Nc2ccc(Cl)cc2C12NN=C(c1cccc3ccccc13)S2 (stereo not shown)
query: Which has the higher pEC50, 1 or 2 ? Give the label of your selection.
result: 2

---

- Experimental System: Lpa1 (Homo sapiens (Human))
- Sequence (Q92633 whole entry, species assumed): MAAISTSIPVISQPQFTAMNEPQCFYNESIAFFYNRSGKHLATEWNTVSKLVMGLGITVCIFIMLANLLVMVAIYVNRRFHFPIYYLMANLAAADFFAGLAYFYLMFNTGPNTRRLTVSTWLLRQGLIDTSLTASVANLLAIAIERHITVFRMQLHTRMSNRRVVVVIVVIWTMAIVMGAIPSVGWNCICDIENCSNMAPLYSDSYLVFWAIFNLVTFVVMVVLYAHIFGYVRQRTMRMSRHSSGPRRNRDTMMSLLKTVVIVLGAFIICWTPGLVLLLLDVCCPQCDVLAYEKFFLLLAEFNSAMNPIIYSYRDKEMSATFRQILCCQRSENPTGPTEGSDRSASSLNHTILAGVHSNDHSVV
- Test Name: Lpa1 activity of OGM analogs (Table 5)
pIC50: −log10 of the molar value.
Quantity: pIC50

query: pIC50 for Cc1noc(-c2ccc(CSCCC(=O)O)cc2)c1NC(=O)OC(C)c1ccccc1Cl (stereo not drawn) [LPAi, reference compound] ?
result: 6.60

P = Cc1ccc2c(c1)C1(NN=C(c3ccccc3)S1)C(=O)N2 (stereo not drawn)
Q = CCc1ccc2c(c1)C1(NN=C(c3ccccc3O)S1)C(=O)N2 (stereo not drawn)
query: Which has the higher pIC50, P or Q ? Give the label of your selection.
result: Q
(Q: 5.85, P: 5.19)
